Assignment: determine reported Viable bacteria after 24 hr for the given compounds.
system: Pseudomonas aeruginosa; assay: Challenge test in shampoo, number of surviving (viable) bacteria; type: cell-based, Pseudomonas aeruginosa (ATCC 19429); conditions: Table 3, 500 ppm, 24 hr

Exercise: What measured Viable bacteria after 24 hr goes with Cc1csc(=S)n1[O-].Cc1csc(=S)n1[O-].Cc1csc(=S)n1[O-].[In+3] ?
Key: < 10

Exercise: Check Cc1csc(=S)n1[O-].Cc1csc(=S)n1[O-].Cc1csc(=S)n1[O-].[Y+3] too.
Key: 1.4 E4

Exercise: Check Cc1csc(=S)n1[O-].Cc1csc(=S)n1[O-].Cc1csc(=S)n1[O-].[Sc+3] too.
Key: 2.0 E3

Exercise: Check Cc1csc(=S)n1[O-].Cc1csc(=S)n1[O-].[Co+2] too.
Key: 5.2 E2

Exercise: Check Cc1csc(=S)n1O [Example 4, 3hydroxy-4-methylthiazol-2(3H)-thione] too.
Key: 1.2 E4

Exercise: Check Cc1csc(=S)n1[O-].Cc1csc(=S)n1[O-].[Mn+2] too.
Key: 3.5 E4

Exercise: Check Cc1csc(=S)n1O.Cc1csc(=S)n1O.[Zn] too.
Key: 7.6 E3

Exercise: Check Cc1csc(=S)n1[O-].Cc1csc(=S)n1[O-].Cc1csc(=S)n1[O-].[Co+3] too.
Key: 1.2 E3

Exercise: Check Cc1csc(=S)n1[O-].Cc1csc(=S)n1[O-].[Zn+2] too.
Key: 4.4 E3

Exercise: Check Cc1csc(=S)n1[O-].Cc1csc(=S)n1[O-].[O]=[V+2] too.
Key: 1.3 E3
